Give normalized growth for every item shown.
Test: chemical genetic growth profiling, strain panel (AID 1159580);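 note: tested at 20 µM; growth read once vehicle control cultures reached saturation at 30 °C; 1 = growth at the plate median or of vehicle wells; lower values mean less growth of the strain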
Conditions: S. cerevisiae deletion strains, growth OD, locus YIL147C, strain SLN1, hits give low values
Hit rate of the full screen: of about 5,500 compounds, about 2,000 (36%) were called active. Roughly 18% stayed inconclusive and do not appear here. Some of the results follow.
Field format: numeric only.

Task: normalized growth for `Cc1cc(C(=O)O/N=C(/N)CSc2ncccc2C(F)(F)F)no1` ?
Result: 0.991

Task: normalized growth for COc1ccc(C2CC(c3ccccc3)=Nc3ccccc3S2)cc1OC (stereo not given) ?
Result: 0.959

Task: normalized growth for CC(O)(CNCc1ccc(Cl)cc1)CSc1ccccc1Cl (stereo not given) ?
Result: 0.978

Task: normalized growth for `Cc1nc(-c2ccc(C(F)(F)F)cn2)[nH]c(=O)c1Cl` ?
Result: 0.919

Task: normalized growth for `N=c1ccc2nc3c(Cl)c4c(c(Cl)c3oc-2c1S(=O)(=O)O)Nc1ccc(N)c(S(=O)(=O)O)c1O4` ?
Result: 1.01

* * *

Experiment: chemical genetic growth profiling, strain panel (AID 1159580);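 note: tested at 20 µM; growth read once vehicle control cultures reached saturation at 30 °C; 1 = growth at the plate median or of vehicle wells; lower values mean less growth of the strain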
Settings: S. cerevisiae deletion strains, growth OD, locus YJL164C, strain tpk1
Screen size: about 5,500 compounds; about 2,000 (36%) were called active. Roughly 18% stayed inconclusive and do not appear here. Rule as the data show it: active = normalized growth mostly below about 0.91 (no sharp cut-off); inconclusive = no clear call, values can overlap the other calls; inactive = mostly above about 0.92. Some of the results follow.
Mark one answer only. Choices: true = active, false = inactive

Task: Field: outcome | Entry: `CC(C)(Oc1ccc(Cl)cc1)C(=O)O`
Result: false

Task: Field: outcome | Entry: `COc1cccc(-c2cc(=O)c3ccc(OC)cc3o2)c1`
Result: false

Task: Field: outcome | Entry: `O=C1CCc2cc(OCCCCc3nnnn3C3CCCCC3)ccc2N1`
Result: false

Task: Field: outcome | Entry: `CC(C)c1ccc2c(c1O)CC[C@H]1C3=C(CC[C@]21C)C(=O)OC3`
Result: false

Task: Field: outcome | Entry: `CCCCCCCCCc1ccc(O)cc1`
Result: true

Task: Field: outcome | Entry: CCOC(=O)C1C(C=C(C)C)C1(C)C (stereo unspecified)
Result: false

Task: Field: outcome | Entry: `COc1ccc(-c2cc(=O)c3cc(OC)ccc3o2)cc1`
Result: true

Task: Field: outcome | Entry: CCCCOc1cc(CC2CNC(=O)N2)ccc1OC (stereo unspecified)
Result: false

Task: Field: outcome | Entry: OC1C(O)C(O)C(O)C(O)C1O (stereo unspecified)
Result: false

Task: Field: outcome | Entry: `C[N+]1(CCCCC[N+]2(C)CCCC2)CCCC1`
Result: false

Task: Field: outcome | Entry: `S=c1ccss1`
Result: false

Task: Field: outcome | Entry: `NCCc1ccc(O)c(O)c1`
Result: false

Task: Field: outcome | Entry: COc1cc([C@@H]2c3cc4c(cc3C(O[C@@H]3O[C@@H]5CO[C@@H](c6cccs6)OC5[C@H](O)[C@H]3O)C3COC(=O)[C@@H]32)OCO4)cc(OC)c1O (stereo partly specified)
Result: false

Task: Field: outcome | Entry: `NC(=O)CC[C@@H](N)C(=O)O`
Result: false

Task: Field: outcome | Entry: `N[C@@H]1CONC1=O`
Result: false

Task: Field: outcome | Entry: `CNCCC=C1c2ccccc2CCc2ccccc21`
Result: false

Task: Field: outcome | Entry: COCCOC(=O)C1=C(C)NC(C)=C(C(=O)OC(C)C)C1c1cccc([N+](=O)[O-])c1 (stereo unspecified)
Result: false

Task: Field: outcome | Entry: `COc1ccc(-c2cc(=O)c3c(O)c(OC)c(OC)c(OC)c3o2)cc1`
Result: false

Task: Field: outcome | Entry: `CCCCC1C(=O)N(c2ccccc2)N(c2ccccc2)C1=O`
Result: false

Task: Field: outcome | Entry: CC(C)(C)C(=O)C(Oc1ccc(Cl)cc1)n1cncn1 (stereo unspecified)
Result: true

Task: Field: outcome | Entry: `CCN(CC)CCNc1ccc(CO)c2sc3ccccc3c(=O)c12`
Result: false

Task: Field: outcome | Entry: `CC(=O)O.CC(=O)O.[Cd]`
Result: true

Task: Field: outcome | Entry: `CN(C)CCC=C1c2ccccc2C=Cc2ccccc21`
Result: false

Task: Field: outcome | Entry: `CCCCCCc1ccc(O)cc1O`
Result: true

Task: Field: outcome | Entry: COC(=O)C1=C(C)NC(C)=C(C(=O)OCC(C)C)C1c1ccccc1[N+](=O)[O-] (stereo unspecified)
Result: true

Task: Field: outcome | Entry: `COc1ccc(-c2cc(=O)c3c(OC)c(OC)c(OC)c(OC)c3o2)cc1`
Result: false

* * *

Test: chemical genetic growth profiling, strain panel (AID 1159580);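 note: tested at 20 µM; growth read once vehicle control cultures reached saturation at 30 °C; 1 = growth at the plate median or of vehicle wells; lower values mean less growth of the strain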
Settings: S. cerevisiae deletion strains, growth OD, locus YHR094C, strain hxt1
In all, about 5,500 compounds went through this assay and about 2,000 (36%) were called active. About 18% were inconclusive and are not listed. No stated cut-off is given here; in the data, active means normalized growth mostly below about 0.91 (no sharp cut-off); inconclusive means no clear call, values can overlap the other calls; inactive means mostly above about 0.92. The list shows a part of the results.
Mark one answer only. Choices: 1 (yes) for active, 0 (no) for inactive

Task: Field: outcome | Entry: C=CCCCCCCCCCCCC(O)CC(O)CO (centres undefined)
Result: 0 (no)

Task: Field: outcome | Entry: C=CCCCCCCCCCCCC(O)CC(O)CO (centres undefined) (tested in a mixture with another compound)
Result: 1 (yes)

Task: Field: outcome | Entry: `COc1ccc(-c2cc(=O)c3cc(OC)ccc3o2)cc1`
Result: 0 (no)

Task: Field: outcome | Entry: `O=c1c(-c2ccc(O)cc2)coc2cc(O)cc(O)c12`
Result: 0 (no)

Task: Field: outcome | Entry: `Cc1coc2ccccc2c1=O`
Result: 0 (no)

Task: Field: outcome | Entry: `Clc1ccc(Cl)cc1`
Result: 0 (no)

Task: Field: outcome | Entry: `CN(N=O)C(=O)N[C@@H]1[C@@H](O)[C@H](O)[C@@H](CO)O[C@@H]1O`
Result: 0 (no)

Task: Field: outcome | Entry: `O=c1c2ccccc2oc2ccc(O)cc12`
Result: 0 (no)

Task: Field: outcome | Entry: CCOC(=O)C1C(C=C(C)C)C1(C)C (centres undefined)
Result: 0 (no)

Task: Field: outcome | Entry: `O=c1c(-c2ccccc2)coc2cc(O)cc(O)c12`
Result: 0 (no)

Task: Field: outcome | Entry: `C[n+]1cc2c3c(ccc2c2ccc4cc5c(cc4c21)OCO5)OCO3`
Result: 1 (yes)

Task: Field: outcome | Entry: CSc1ccc2c(c1)C(N1CCN(C)CC1)Cc1ccccc1S2 (centres undefined)
Result: 0 (no)

Task: Field: outcome | Entry: CC(=O)CC(c1ccccc1)c1c(O)c2ccccc2oc1=O (centres undefined)
Result: 0 (no)

Task: Field: outcome | Entry: `CNCCC=C1c2ccccc2CCc2ccccc21`
Result: 0 (no)

Task: Field: outcome | Entry: `ClC(Cl)=C(c1ccc(Cl)cc1)c1ccc(Cl)cc1`
Result: 0 (no)

Task: Field: outcome | Entry: CN1CCN2c3ccccc3Cc3ccccc3C2C1 (centres undefined)
Result: 0 (no)

Task: Field: outcome | Entry: `C[N+]1(CCCCC[N+]2(C)CCCC2)CCCC1`
Result: 0 (no)

Task: Field: outcome | Entry: `O=C1c2c(O)ccc(O)c2C(=O)c2c(NCCNCCO)ccc(NCCNCCO)c21`
Result: 0 (no)

Task: Field: outcome | Entry: `CC(C)c1ccc2c(c1O)CC[C@H]1C3=C(CC[C@]21C)C(=O)OC3`
Result: 0 (no)

Task: Field: outcome | Entry: `COc1ccc2cc3[n+](cc2c1OC)CCc1cc2c(cc1-3)OCO2`
Result: 1 (yes)

Task: Field: outcome | Entry: `CN(C)CCC=C1c2ccccc2C=Cc2ccccc21`
Result: 0 (no)

Task: Field: outcome | Entry: CCC1C2CC3C4N(C)c5ccccc5C45CC(C2C5OC(C)=O)N3C1OC(C)=O (centres undefined)
Result: 0 (no)

Task: Field: outcome | Entry: CC1NC(=O)NC1=O (centres undefined)
Result: 0 (no)

Task: Field: outcome | Entry: `CN(C)CCC=C1c2ccccc2CCc2ccccc21`
Result: 0 (no)

* * *

Experiment: chemical genetic growth profiling, strain panel (AID 1159580);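 note: tested at 20 µM; growth read once vehicle control cultures reached saturation at 30 °C; 1 = growth at the plate median or of vehicle wells; lower values mean less growth of the strain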
Settings: S. cerevisiae deletion strains, growth OD, locus YPL256C, strain CLN2, hits give low values
About 2,000 (36%) of roughly 5,500 compounds were called active. Roughly 18% stayed inconclusive and do not appear here. This is one part of the list.
// classify: if (normalized growth < 1) condition met else condition not met

Task: In plain terms, does CC(C(=O)O)[C@H]1CCC2C3CC=C4C[C@@H](O)CC[C@]4(C)C3CC[C@@]21C (some centres not stated) come in under 1 for normalized growth?
Result: condition not met

Task: In plain terms, does CC(=O)CC(c1ccccc1)c1c(O)c2ccccc2oc1=O (configuration not stated) come in under 1 for normalized growth?
Result: condition met

Task: In plain terms, does CC(=O)OCC(=O)[C@H]1CCC2C3CC=C4C[C@@H](O)CC[C@]4(C)C3CC[C@@]21C (some centres not stated) come in under 1 for normalized growth?
Result: condition met

Task: In plain terms, does `CC(C)c1ccc(-c2cc(=O)c3ccccc3o2)cc1` come in under 1 for normalized growth?
Result: condition met

Task: In plain terms, does `CCn1cc(C(=O)O)c(=O)c2cc(F)c(N3CCNCC3)cc21` come in under 1 for normalized growth?
Result: condition met

Task: In plain terms, does `NCC(=O)CCC(=O)O` come in under 1 for normalized growth?
Result: condition not met

Task: In plain terms, does `CCCN1C[C@H](CSC)C[C@@H]2c3cccc4[nH]cc(c34)C[C@H]21` come in under 1 for normalized growth?
Result: condition not met

Task: In plain terms, does `O=C1c2ccccc2O[C@@H](c2ccccc2)[C@@H]1NCc1ccccc1` come in under 1 for normalized growth?
Result: condition met

Task: In plain terms, does `CCN(CC)CCNC(=O)c1ccc(NC(C)=O)cc1` come in under 1 for normalized growth?
Result: condition not met

Task: In plain terms, does `CC1=C2C(=CO[C@H](C)[C@H]2C)C(=O)C(C(=O)O)=C1O` come in under 1 for normalized growth?
Result: condition met

Task: In plain terms, does `O=C(O)c1cn(-c2ccc(F)cc2)c2cc(N3CCNCC3)c(F)cc2c1=O` come in under 1 for normalized growth?
Result: condition not met

Task: In plain terms, does `CC(C)(C)c1csc(NNC(=O)c2ccc(Cl)cc2)n1` come in under 1 for normalized growth?
Result: condition met

Task: In plain terms, does `CC(C)(C)c1csc(NC(=O)Nc2ccc(Cl)cc2)n1` come in under 1 for normalized growth?
Result: condition met

Task: In plain terms, does `COc1ccc(C(=O)/C=C/c2ccccc2)cc1` come in under 1 for normalized growth?
Result: condition met

Task: In plain terms, does `Cc1ccc(C(=O)O/N=C(/N)CSc2ncccc2C(F)(F)F)cc1` come in under 1 for normalized growth?
Result: condition met

Task: In plain terms, does `NCCc1ccc(O)cc1` come in under 1 for normalized growth?
Result: condition met

Task: In plain terms, does `COc1ccc2cc3[n+](cc2c1OC)CCc1cc2c(cc1-3)OCO2` come in under 1 for normalized growth?
Result: condition met

Task: In plain terms, does `N[C@@H]1CONC1=O` come in under 1 for normalized growth?
Result: condition not met

Task: In plain terms, does `ClC(Cl)=C(c1ccc(Cl)cc1)c1ccc(Cl)cc1` come in under 1 for normalized growth?
Result: condition not met

Task: In plain terms, does `Fc1ccc(N/N=C\Cc2nnnn2-c2ccccc2)c(F)c1` come in under 1 for normalized growth?
Result: condition met

Task: In plain terms, does `O=C(CSCc1nc(-c2ccc(Cl)cc2)cs1)N/N=C\c1cccs1` come in under 1 for normalized growth?
Result: condition met

Task: In plain terms, does `C[n+]1cc2c3c(ccc2c2ccc4cc5c(cc4c21)OCO5)OCO3` come in under 1 for normalized growth?
Result: condition met

Task: In plain terms, does `Cc1ncc(C[n+]2csc(CCO)c2C)c(=O)[nH]1` come in under 1 for normalized growth?
Result: condition not met

Task: In plain terms, does `O=c1c2ccccc2oc2ccccc12` come in under 1 for normalized growth?
Result: condition met

Task: In plain terms, does `CC(C)(C)c1csc(NC(=O)c2ccc(Cl)cc2Cl)n1` come in under 1 for normalized growth?
Result: condition met

Task: In plain terms, does `N/C(CSc1ccc(Cl)cc1)=N/OC(=O)c1ccc(C(F)(F)F)cc1` come in under 1 for normalized growth?
Result: condition met

Task: In plain terms, does `N#CCC(=O)c1cccc(CSc2ccccc2Cl)c1` come in under 1 for normalized growth?
Result: condition met
